Cited source for all entries: ChEMBL document CHEMBL4184234

Some molecules, each annotated with its measured Activity.
Species: Bos taurus
Assay: Agonist activity at GPER in BCAEC assessed as increase in eNOS Ser1179 phosphorylation at 1 uM pre-incubated with 1 uM GPER antagonist G15 for 30 mins followed by compound incubation for 10 mins by Western blot relative to untreated control
Parameters: scale not given: the % may be the effect or the level left
Answer in %, number only, no unit symbol.

In the examples that follow, each entry is paired with its recorded Activity.
> print(dat)
                    structure.smiles.string  measured.quantity  value.observed
1  Oc1cc(O)c2c(c1)O[C@H](c1ccc(O)c(O)c1)[C@H](O)C2           Activity            55.6
2  CS(=O)(=O)O[C@@H]1Cc2c(O)cc(O)cc2O[C@@H]1c1ccc(O)c(O)c1           Activity              53
3  C#CCO[C@@H]1Cc2c(O)cc(O)cc2O[C@@H]1c1ccc(O)c(O)c1           Activity            59.3

Lab note: measured Activity of C#CCOc1cc(OCC#C)c2c(c1)O[C@H](c1ccc(OCC#C)c(OCC#C)c1)[C@H](OCC#C)C2 was 54.8

Lab note: measured Activity of C#CCOc1cc(OCC#C)c2c(c1)O[C@H](c1ccc(OCC#C)c(OCC#C)c1)[C@H](O)C2 was 57.4
